Measured On: PI3Kδ (Homo sapiens)
Construct: JEKO-1 (PI3Kδ) cells; endogenous in cells
Sequence (O00329 whole entry, one chain of several): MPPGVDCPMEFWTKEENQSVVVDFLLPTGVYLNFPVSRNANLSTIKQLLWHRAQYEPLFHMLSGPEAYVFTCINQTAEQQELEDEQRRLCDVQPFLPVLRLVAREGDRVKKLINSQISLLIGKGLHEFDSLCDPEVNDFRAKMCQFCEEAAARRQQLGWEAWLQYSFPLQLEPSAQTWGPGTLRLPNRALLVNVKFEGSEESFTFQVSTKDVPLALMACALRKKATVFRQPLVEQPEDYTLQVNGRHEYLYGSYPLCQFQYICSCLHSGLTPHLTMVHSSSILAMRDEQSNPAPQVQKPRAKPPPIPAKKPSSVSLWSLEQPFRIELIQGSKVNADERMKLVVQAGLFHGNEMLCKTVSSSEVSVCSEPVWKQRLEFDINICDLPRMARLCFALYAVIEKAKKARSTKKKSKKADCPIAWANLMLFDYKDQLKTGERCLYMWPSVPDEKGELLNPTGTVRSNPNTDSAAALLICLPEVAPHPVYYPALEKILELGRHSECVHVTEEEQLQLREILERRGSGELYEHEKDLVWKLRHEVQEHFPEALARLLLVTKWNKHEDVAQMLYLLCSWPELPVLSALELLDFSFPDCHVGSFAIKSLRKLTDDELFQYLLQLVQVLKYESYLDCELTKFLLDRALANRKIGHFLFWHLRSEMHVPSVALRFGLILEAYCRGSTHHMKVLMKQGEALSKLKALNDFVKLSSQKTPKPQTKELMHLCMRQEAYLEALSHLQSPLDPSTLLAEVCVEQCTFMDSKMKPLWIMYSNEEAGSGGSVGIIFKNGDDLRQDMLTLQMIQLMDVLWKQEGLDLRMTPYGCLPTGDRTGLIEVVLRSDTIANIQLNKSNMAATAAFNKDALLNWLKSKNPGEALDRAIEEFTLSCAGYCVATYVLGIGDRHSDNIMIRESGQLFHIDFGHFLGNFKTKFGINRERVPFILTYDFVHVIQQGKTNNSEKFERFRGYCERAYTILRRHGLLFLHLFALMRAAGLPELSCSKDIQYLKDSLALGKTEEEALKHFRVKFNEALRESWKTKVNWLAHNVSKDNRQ
Protocol Text: PI3K isoform assay, pAKT Thr308 ELISA in JEKO-1 cells
Condition Context: geometric mean; Supplementary Table 1; read-out: Compound IC50 PI3K (fourth PI3K line)
Readout: IC50

Incoming: Respond only with IC50 recorded for CNC(=O)c1ccnc2c([C@H](C)CNc3cc(-c4cnc(C)nc4)ncn3)cccc12 [M9831/VX-984]
Outgoing: > 30 µM

----------
Measured On: DNA-PKcs (Homo sapiens)
Construct: evaluated in A549 cells following IR by measuring DNA-PKcs autophosphorylation on Ser2056; endogenous in cells
Protocol Text: DNA-PKcs autophosphorylation (pSer2056) ELISA in IR-treated A549 cells
Condition Context: geometric mean; Supplementary Table 1; read-out: Compound IC50 DNA-PKcs
Please respond with reported pIC50 for every item in the list.
Numbers only, as −log10 of the molar value.

Some molecules with recorded pIC50:
CCN1CCN(CC(=O)Nc2ccc(-c3cccc4c(=O)cc(N5CCOCC5)oc34)c3sc4ccccc4c23)CC1	7.26
O=c1cc(N2CCOCC2)oc2c(-c3cccc4c3sc3ccccc34)cccc12	6.73

Please examine the following record next.
Incoming: Respond only with pIC50 recorded for `CNC(=O)c1ccnc2c([C@H](C)CNc3cc(-c4cnc(C)nc4)ncn3)cccc12`
Outgoing: 6.94

----------
Measured On: PI3Kγ (Mus musculus, UniProt Q9JHG7)
Construct: RAW-264 (PI3Kγ); endogenous in cells
Sequence (Q9JHG7 whole entry): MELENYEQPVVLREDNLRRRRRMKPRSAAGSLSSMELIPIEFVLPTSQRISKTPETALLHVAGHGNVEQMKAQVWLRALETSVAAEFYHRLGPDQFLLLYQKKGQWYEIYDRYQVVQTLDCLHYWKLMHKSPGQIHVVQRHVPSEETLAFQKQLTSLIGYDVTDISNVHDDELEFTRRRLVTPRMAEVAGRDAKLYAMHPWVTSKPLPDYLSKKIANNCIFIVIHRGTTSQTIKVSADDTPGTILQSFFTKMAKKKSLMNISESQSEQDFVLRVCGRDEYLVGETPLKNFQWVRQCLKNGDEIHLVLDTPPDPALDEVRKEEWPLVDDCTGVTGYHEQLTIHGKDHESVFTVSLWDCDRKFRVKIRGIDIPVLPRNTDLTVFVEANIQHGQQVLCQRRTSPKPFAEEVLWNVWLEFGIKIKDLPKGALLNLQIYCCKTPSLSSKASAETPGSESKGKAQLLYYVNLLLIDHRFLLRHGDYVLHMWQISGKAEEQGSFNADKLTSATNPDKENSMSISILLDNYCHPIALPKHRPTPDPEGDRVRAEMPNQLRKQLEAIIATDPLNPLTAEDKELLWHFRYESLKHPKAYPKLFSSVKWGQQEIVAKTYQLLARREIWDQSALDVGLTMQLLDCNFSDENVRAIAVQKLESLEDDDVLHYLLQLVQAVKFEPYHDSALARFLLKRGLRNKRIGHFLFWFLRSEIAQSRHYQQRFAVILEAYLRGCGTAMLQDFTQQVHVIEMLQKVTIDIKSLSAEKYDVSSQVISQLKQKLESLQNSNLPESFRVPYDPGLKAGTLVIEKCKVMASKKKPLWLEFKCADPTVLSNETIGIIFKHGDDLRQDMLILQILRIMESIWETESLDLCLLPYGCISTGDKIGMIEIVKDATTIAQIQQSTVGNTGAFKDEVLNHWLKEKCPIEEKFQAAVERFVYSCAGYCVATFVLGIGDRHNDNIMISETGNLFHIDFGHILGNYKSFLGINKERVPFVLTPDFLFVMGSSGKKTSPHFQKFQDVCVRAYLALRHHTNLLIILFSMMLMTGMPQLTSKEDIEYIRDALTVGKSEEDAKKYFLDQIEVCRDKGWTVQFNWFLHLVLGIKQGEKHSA
Protocol Text: PI3K isoform assay, pAKT Thr308 ELISA in RAW-264 cells
Condition Context: geometric mean; Supplementary Table 1; read-out: Compound IC50 PI3K (third PI3K line)
Protocol: BT474 (PI3Kα), MDA-MB-468 (PI3Kβ), RAW-264 (PI3Kγ) and JEKO-1 (PI3Kδ). Levels of phospho-AKT Thr308, a downstream target for PI3K, was used as a marker of PI3K […] RAW-264 and JEKO-1 cells were seeded directly into 384-well plates containing compounds (1 x 10^5 cells/well) and incubated for 1 hour. […] (ThermoScientific #15169) was added to each well according to the manufacturer’s instructions and stop solution was added 60 minutes later. Fluorescence was measured
Readout: IC50
Hey, just the number and the unit after it is fine.

COc1ccc([C@@H](O)c2cc(-c3ncnc4cc(N5CCOCC5)ccc34)c(F)cc2Cl)nn1 [M3814]	1.59 µM

Incoming: Respond only with IC50 recorded for CNC(=O)c1ccnc2c([C@H](C)CNc3cc(-c4cnc(C)nc4)ncn3)cccc12 [M9831/VX-984]
Outgoing: 7.1 µM

----------
Measured On: PI3Kβ (Homo sapiens)
Construct: MDA-MB-468 (PI3Kβ); endogenous in cells
Sequence (P42338 whole entry): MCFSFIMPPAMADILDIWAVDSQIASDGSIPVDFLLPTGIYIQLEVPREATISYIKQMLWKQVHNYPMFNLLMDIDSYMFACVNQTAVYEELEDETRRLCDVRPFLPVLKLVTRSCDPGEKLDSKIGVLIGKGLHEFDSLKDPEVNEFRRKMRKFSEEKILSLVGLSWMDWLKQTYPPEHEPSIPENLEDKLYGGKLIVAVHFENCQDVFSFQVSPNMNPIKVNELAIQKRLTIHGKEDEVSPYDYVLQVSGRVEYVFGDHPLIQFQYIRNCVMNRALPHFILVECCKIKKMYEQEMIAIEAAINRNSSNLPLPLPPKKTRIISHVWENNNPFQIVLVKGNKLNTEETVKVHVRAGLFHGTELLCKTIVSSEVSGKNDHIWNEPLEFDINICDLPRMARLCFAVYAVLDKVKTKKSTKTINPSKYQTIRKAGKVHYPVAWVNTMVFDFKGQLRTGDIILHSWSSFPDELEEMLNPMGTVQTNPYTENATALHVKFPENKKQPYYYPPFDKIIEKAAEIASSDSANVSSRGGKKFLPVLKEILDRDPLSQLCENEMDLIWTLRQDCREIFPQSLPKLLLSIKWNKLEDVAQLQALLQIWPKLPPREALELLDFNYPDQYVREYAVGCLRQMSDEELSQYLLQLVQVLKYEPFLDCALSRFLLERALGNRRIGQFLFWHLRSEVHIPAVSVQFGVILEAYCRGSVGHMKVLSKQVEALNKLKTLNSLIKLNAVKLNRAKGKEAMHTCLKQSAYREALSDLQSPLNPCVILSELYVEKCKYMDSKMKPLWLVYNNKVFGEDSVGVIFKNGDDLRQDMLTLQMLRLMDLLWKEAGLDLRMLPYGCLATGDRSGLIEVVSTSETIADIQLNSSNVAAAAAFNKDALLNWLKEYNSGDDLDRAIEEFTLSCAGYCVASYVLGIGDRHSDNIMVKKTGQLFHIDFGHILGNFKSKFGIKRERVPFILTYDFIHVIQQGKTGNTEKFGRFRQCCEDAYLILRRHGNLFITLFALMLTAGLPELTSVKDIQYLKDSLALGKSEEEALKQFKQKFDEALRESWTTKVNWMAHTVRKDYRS
Sequence (P27986 whole entry partner): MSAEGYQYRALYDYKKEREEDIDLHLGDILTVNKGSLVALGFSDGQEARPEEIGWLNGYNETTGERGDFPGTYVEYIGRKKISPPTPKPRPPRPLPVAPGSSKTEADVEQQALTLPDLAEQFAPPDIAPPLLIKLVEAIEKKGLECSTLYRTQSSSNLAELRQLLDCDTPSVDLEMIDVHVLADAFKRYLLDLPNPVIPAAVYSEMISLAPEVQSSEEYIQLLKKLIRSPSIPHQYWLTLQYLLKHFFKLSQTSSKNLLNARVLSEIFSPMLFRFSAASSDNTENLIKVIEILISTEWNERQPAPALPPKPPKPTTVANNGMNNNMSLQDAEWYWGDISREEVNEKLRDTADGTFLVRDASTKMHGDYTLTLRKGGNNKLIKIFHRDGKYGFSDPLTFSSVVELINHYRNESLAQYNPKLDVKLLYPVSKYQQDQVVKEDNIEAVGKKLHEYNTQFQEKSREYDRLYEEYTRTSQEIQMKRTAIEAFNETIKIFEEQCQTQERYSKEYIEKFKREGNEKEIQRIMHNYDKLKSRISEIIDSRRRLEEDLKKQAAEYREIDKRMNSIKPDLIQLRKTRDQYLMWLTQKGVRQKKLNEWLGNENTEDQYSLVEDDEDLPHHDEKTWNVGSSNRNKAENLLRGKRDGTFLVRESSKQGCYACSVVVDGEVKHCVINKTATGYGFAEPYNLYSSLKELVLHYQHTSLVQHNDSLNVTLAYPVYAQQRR
Protocol Text: PI3K isoform assay, pAKT Thr308 ELISA in MDA-MB-468 cells
Condition Context: geometric mean; Supplementary Table 1; read-out: Compound IC50 PI3K (second PI3K line)
pIC50: −log10 of the molar value.
Readout: pIC50

Incoming: Respond only with pIC50 recorded for `CNC(=O)c1ccnc2c([C@H](C)CNc3cc(-c4cnc(C)nc4)ncn3)cccc12`
Outgoing: < 4.52
